# tested target: δ-opioid receptor (Rattus norvegicus, UniProt P33533)
# Construct: the forebrains are homogenized in Tris buffer in a Teflon®-glass homogenizer; from tissue; host or cells: rat (male Wistar) forebrain, particulate membrane preparation
# Sequence (P33533 whole entry): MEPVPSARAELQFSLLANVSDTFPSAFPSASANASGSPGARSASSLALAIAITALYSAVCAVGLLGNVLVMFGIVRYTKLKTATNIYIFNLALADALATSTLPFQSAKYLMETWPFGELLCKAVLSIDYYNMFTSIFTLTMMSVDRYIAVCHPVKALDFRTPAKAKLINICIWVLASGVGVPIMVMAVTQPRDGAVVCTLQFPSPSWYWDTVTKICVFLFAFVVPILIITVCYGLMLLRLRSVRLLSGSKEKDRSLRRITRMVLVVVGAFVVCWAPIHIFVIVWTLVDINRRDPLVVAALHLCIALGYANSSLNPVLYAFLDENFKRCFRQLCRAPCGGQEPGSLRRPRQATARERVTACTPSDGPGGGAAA
# test protocol: Rat brain δ-opioid receptor binding assay
So I've got a bunch of compounds here, and I need their pKi values.
Answers are plain numbers, as −log10 of the molar value.

Example compounds with recorded pKi:
Cc1ccsc1CN1C2CCC1CC(=C(c1ccccc1)c1ccsc1)C2 : 7.42
Cc1ccccc1CN1C2CCC1CC(=C(c1ccc(O)cc1)c1ccsc1)C2 : 7.45
C=CCN1C2CCC1CC(=C(c1ccsc1)c1cccc(O)c1)C2 : 8.77
Cc1ccsc1CN1C2CCC1CC(=C(c1ccsc1)c1cccc(O)c1)C2 : 8.23
CC(C)=CCN1C2CCC1CC(=C(c1ccc(O)cc1)c1ccsc1)C2 : 8.27

Respectfully, I request pKi for each entry included below.
1. CC(C)=CCN1C2CCC1CC(=C(c1ccsc1)c1cccc(O)c1)C2
2. Cc1ccsc1CN1C2CCC1CC(=C(c1ccc(O)cc1)c1ccsc1)C2

Result:
1. 9.04
2. 7.50
